Origin of measurements: ChEMBL document CHEMBL1201862

Tested on: IGROV-1
assay.procedure: NCI tumour cell line growth inhibition, 48 h
The source made the active and inactive calls. Cut-off read from the data, not from the text of the source: active = GI50 up to about 1.1 µM and inactive = higher.
Pick one and only one: active, inactive

Field: example entries. Status: answers known.
COc1ccc(S(=O)(=O)n2c3c(c4ccccc42)[C@@H]2[C@@H](CCCN2C(=O)C[S+]([O-])c2ccc(C)cc2)[C@H](Cl)C3)cc1 (stereo partly drawn) :: inactive
COC(C/C=C\C=C\CC/C=C/CC(C)/C=C/C(=C\C(=O)O)CC(=O)O)/C(C)=C\C=C(/C)C(=O)O (stereo not drawn) :: inactive

Q: // param item: `O=c1c2ccccc2[nH]c2cc(O)cc(O)c12` ; yields the recorded call
Result: active
